Every entry's value here was drawn from the supplement of paper PMC10567573.

Could you please report measured protein stability index for the items listed next?
B1: CLCN6 (parent)
chain: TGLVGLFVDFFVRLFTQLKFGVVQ

Variants of: B1
Test: protein stability index of a GFP-peptide fusion (GPS, HEK-293T) (PSI 1-6); higher = more stable;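 also: lentivirally expressed fusions sorted by FACS into six bins by GFP to DsRed ratio, PSI derived from sequencing read proportions per bin multiplied by bin number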
Conditions: c terminus: a fixed tail appended
Numbers only.

Provide each entry's protein stability index from the list below.
1. G2F
2. L6Q
3. L14I
4. L6I
5. L6D

Found:
3.79
3.53
2.25
2.83
2.33

Can you give me protein stability index for all of these, one by one?
1. V8K
2. F20P

Found:
1. 2.04
2. 2.12

List protein stability index for every entry below, keeping the order given.
1. V8Y
2. L18K
3. V22S
4. T1A

Found:
1. 2.79
2. 2.02
3. 2.33
4. 1.84
